- test_details: Half life of compound was determined in mouse plasma
- Assay type: ADME, organism-based
attribute_measured: half-life (min)

* CCOC(=O)c1[nH]c2ccc(CCN3C(=O)CNC3=O)cc2c1CCN(C)C | 12

----------
pKB listing for selected compounds.
- tested_on: 5-hydroxytryptamine receptor 2A (Homo sapiens) (UniProt P28223)
- Sequence (P28223 whole entry): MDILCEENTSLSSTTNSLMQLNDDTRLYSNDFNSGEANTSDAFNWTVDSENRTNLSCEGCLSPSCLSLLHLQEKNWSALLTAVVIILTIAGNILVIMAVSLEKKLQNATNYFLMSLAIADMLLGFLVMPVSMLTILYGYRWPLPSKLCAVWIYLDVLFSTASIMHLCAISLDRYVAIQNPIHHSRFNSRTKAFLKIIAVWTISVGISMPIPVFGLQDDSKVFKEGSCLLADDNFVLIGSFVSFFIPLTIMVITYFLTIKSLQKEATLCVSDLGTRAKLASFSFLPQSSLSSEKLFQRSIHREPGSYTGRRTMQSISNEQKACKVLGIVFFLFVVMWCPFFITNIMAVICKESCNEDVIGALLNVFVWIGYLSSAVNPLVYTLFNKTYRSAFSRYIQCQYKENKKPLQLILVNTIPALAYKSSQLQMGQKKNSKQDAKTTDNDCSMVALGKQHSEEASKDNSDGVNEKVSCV
- test_details: Dissociation equilibrium constant against the vascular 5-hydroxytryptamine 2A receptor in the rabbit […] aorta
- Assay type: tissue-based
- assay_conditions: Oryctolagus cuniculus, target entry is the homologue from another species
attribute_measured: pKB

- CCOC(=O)c1[nH]c2ccc(CCN3CCCC3=O)cc2c1CCN(C)C: 5.5
- CN(C)CCc1c(C(=O)OCc2ccccc2)[nH]c2ccc(CCN3C(=O)CNC3=O)cc12: 7.3
- COC(=O)c1[nH]c2ccc(CCN3C(=O)NC(C)(C)C3=O)cc2c1CCN(C)C: 5.02
- CC(C)OC(=O)c1[nH]c2ccc(CCN3C(=O)NC(C)(C)C3=O)cc2c1CCN(C)C: 5.8
- CCOC(=O)c1[nH]c2ccc(CCC3COC(=O)N3)cc2c1CCN(C)C (stereo not given): 6.76

----------
- test_details: Half life of compound was determined in rat plasma
- Format: ADME, organism-based
attribute_measured: half-life

- CCOC(=O)c1[nH]c2ccc(CCN3C(=O)CNC3=O)cc2c1CCN(C)C: 15 min

----------
- tested_on: 5-hydroxytryptamine receptor 2A (Homo sapiens) (UniProt P28223)
- test_details: Dissociation equilibrium constant against the vascular 5-hydroxytryptamine 2A receptor in the rabbit […] aorta
- Type: tissue-based
- assay_conditions: Oryctolagus cuniculus, target entry is the homologue from another species
pKB values, listed per item
attribute_measured: pKB

- CCOC(=O)c1[nH]c2ccc(CC3COC(=O)N3)cc2c1CCN(C)C (stereo not given): 5.66
- COC(=O)c1[nH]c2ccc(CN3C(=O)CNC3=O)cc2c1CCN(C)C: 5.15
- CC(C)OC(=O)c1[nH]c2ccc(CCN3C(=O)CNC3=O)cc2c1CCN(C)C: 6.57
- COC(=O)c1[nH]c2ccc(CCC3COC(=O)N3)cc2c1CCN(C)C (stereo not given): 5.88
- CN(C)CCc1c(C(N)=O)[nH]c2ccc(CC3COC(=O)N3)cc12 (stereo not given): < 4.5
- CCOC(=O)c1[nH]c2ccc(CCN3C(=O)c4ccccc4C3=O)cc2c1C1=CCN(C)CC1: 5.02
- CCOC(=O)c1[nH]c2ccc(CCN3C(=O)NC(C)(C)C3=O)cc2c1CCN(C)C: 5.23
- CCOC(=O)c1[nH]c2ccc(CCN3C(=O)CSC3=O)cc2c1CCN(C)C: 7.56
- CN(C)CCc1c(Br)[nH]c2ccc(CC3COC(=O)N3)cc12 (stereo not given): < 5
- CC(C)OC(=O)c1[nH]c2ccc(CN3C(=O)NC(C)(C)C3=O)cc2c1CCN(C)C: 5.62
- CCOC(=O)c1[nH]c2ccc(CCN3C(=O)CNC3=O)cc2c1CCN(C)C: 5.8
- CCOC(=O)c1[nH]c2ccc(CCN3C(=O)c4ccccc4C3=O)cc2c1CCN(C)C: 6.26
- CC(C)OC(=O)c1[nH]c2ccc(CCN3C(=O)NC(C)(C)C3=O)cc2c1C1=CCN(C)CC1: < 5
- COC(=O)c1[nH]c2ccc(CCN3C(=O)c4ccccc4C3=O)cc2c1CCN(C)C: 5.66
- CN(C)CCc1c(C(=O)OC2CCCCC2)[nH]c2ccc(CCN3C(=O)NC(C)(C)C3=O)cc12: 4.77
- CN(C)CCc1c(C#N)[nH]c2ccc(CC3COC(=O)N3)cc12 (stereo not given): 4.6
- CCOC(=O)c1[nH]c2ccc(CCN3C(=O)CCC3=O)cc2c1CCN(C)C: 6.3
- COC(=O)c1[nH]c2ccc(CCN3CCOC3=O)cc2c1CCN(C)C: < 5
- CCOC(=O)c1[nH]c2ccc(CCC3NC(=O)N(C)C3=O)cc2c1CCN(C)C (stereo not given): 6.2
- COC(=O)c1[nH]c2ccc(CN3C(=O)NC(C)(C)C3=O)cc2c1CCN(C)C: 5.03

Provenance of the data: ChEMBL document CHEMBL1130209
